- ASSAY TARGET: NACHT, LRR and PYD domains-containing protein 3 (Mus musculus)
- Sequence (Q8R4B8 whole entry, the tested form may be a part): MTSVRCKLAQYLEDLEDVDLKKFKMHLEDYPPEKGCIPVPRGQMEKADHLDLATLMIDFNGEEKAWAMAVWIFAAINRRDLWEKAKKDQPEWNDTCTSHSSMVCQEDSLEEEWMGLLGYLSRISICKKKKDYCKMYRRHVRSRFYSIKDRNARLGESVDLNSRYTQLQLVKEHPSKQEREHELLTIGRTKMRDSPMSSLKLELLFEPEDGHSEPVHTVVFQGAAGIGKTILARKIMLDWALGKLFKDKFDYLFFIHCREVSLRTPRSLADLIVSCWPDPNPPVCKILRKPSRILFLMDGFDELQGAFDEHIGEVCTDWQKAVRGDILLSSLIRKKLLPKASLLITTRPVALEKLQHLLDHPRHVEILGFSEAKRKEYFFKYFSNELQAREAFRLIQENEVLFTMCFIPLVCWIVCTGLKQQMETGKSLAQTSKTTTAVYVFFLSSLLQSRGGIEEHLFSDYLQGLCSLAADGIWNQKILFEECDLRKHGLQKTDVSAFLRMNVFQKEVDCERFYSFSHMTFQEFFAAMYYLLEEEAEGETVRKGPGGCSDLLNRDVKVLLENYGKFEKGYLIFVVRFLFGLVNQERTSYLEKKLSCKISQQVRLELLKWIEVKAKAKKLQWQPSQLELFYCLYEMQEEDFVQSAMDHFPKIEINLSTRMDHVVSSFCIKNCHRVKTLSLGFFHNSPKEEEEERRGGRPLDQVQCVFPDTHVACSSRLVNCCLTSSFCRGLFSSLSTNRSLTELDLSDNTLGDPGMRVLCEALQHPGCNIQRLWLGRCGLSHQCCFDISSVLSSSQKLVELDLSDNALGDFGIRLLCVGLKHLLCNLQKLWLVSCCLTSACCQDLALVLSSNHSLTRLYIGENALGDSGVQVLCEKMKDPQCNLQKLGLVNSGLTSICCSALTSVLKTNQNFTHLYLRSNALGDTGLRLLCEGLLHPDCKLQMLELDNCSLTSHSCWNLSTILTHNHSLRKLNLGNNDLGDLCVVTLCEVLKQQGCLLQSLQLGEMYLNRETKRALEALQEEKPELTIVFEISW
- ASSAY OVERVIEW: Inhibition of NLRP3 in mouse J774A.1 cells assessed as reduction in LPS-stimulated IL-1beta levels pre-incubated with LPS for 4.5 hrs followed by incubation for 30 mins in presence of ATP and measured after 30 mins by ELISA
- Assay type: cell-based
pIC50: −log10 of the molar value.
Listed below: pIC50 values for each entry.
MEASURE NAME: pIC50

CNS(=O)(=O)c1ccc(CCNC(=O)c2ccc(Cl)cc2OC)cc1    4.74
COc1ccc(Cl)cc1C(=O)NCCc1ccc(S(=O)(=O)NCc2ccc(O)cc2)cc1    6.20
CNS(=O)(=O)c1ccc(CCNC(=O)c2ccccc2)cc1    3.83
COc1ccc(CNS(=O)(=O)c2ccc(CCNC(=O)c3cc(Cl)ccc3OC)cc2)cc1    6.38
CNS(=O)(=O)c1ccc(CCCCNC(=O)c2cc(Cl)ccc2OC)cc1    5.76
CNS(=O)(=O)c1ccc(CCNC(=O)c2ccc(OC)c(Cl)c2)cc1    4.48
CCCCN(CCCC)S(=O)(=O)c1ccc(CCNC(=O)c2cc(Cl)ccc2OC)cc1    6.26
COc1ccc(Cl)cc1C(=O)NCCc1ccc(S(=O)(=O)N2CCCCC2)cc1    5.30
COc1ccc(Cl)cc1C(=O)NCCc1ccc(S(=O)(=O)N2CCOCC2)cc1    5.46
CNS(=O)(=O)c1ccc(CCCNC(=O)c2cc(Cl)ccc2OC)cc1    5.69
CNS(=O)(=O)c1ccc(CCNC(=O)c2cc(Cl)cc(OC)c2)cc1    5.23
CNS(=O)(=O)c1ccc(CCNC(=O)c2cccc(Cl)c2)cc1    4.87
COc1ccc(Cl)cc1C(=O)NCCc1ccc(S(=O)(=O)N2CCCC2)cc1    5.45
CCCCNS(=O)(=O)c1ccc(CCNC(=O)c2cc(Cl)ccc2OC)cc1    6.01
CNS(=O)(=O)c1ccc(CCNC(=O)c2ccccc2OC)cc1    4.77
COc1ccc(Cl)cc1C(=O)NCCc1ccc(S(=O)(=O)NCc2ccc(Cl)cc2)cc1    5.82
CCCNS(=O)(=O)c1ccc(CCNC(=O)c2cc(Cl)ccc2OC)cc1    5.79
COc1ccc(Cl)cc1C(=O)NCCc1ccc(S(=O)(=O)N2CCC2)cc1    5.78
CNS(=O)(=O)c1ccc(CCNC(=O)c2cc(Cl)ccc2O)cc1    4.98
COc1ccc(Cl)cc1C(=O)NCCc1ccc(S(=O)(=O)Nc2ccccc2)cc1    5.68
CNS(=O)(=O)c1ccc(CCNC(=O)c2c(Cl)cccc2OC)cc1    4.35
CNS(=O)(=O)c1ccc(CCNC(=O)c2cccc(Cl)c2OC)cc1    4.50
CCCN(CCC)S(=O)(=O)c1ccc(CCNC(=O)c2cc(Cl)ccc2OC)cc1    5.85
COc1ccc(Cl)cc1C(=O)NCCc1ccc(S(=O)(=O)NCc2ccccc2)cc1    5.88
COc1ccc(Cl)cc1C(=O)NCCc1ccc(S(=O)(=O)N2CCNCC2)cc1    5.47
COc1ccc(Cl)cc1C(=O)NCCc1ccc(S(=O)(=O)NCc2ccc(C(F)(F)F)cc2)cc1    5.72
CCN(CC)S(=O)(=O)c1ccc(CCNC(=O)c2cc(Cl)ccc2OC)cc1    5.70
COc1ccc(Cl)cc1C(=O)NCCc1ccc(S(=O)(=O)NCCc2ccccc2)cc1    6.09

Just for reference, ChEMBL document CHEMBL4251750 is where these values come from.
